target: Xanthine dehydrogenase/oxidase (Bos taurus); experiment: Mixed-type inhibition of bovine xanthine oxidase assessed as inhibition of uric acid formation by Lineweaver-Burk plot
Sequence (P80457 whole entry): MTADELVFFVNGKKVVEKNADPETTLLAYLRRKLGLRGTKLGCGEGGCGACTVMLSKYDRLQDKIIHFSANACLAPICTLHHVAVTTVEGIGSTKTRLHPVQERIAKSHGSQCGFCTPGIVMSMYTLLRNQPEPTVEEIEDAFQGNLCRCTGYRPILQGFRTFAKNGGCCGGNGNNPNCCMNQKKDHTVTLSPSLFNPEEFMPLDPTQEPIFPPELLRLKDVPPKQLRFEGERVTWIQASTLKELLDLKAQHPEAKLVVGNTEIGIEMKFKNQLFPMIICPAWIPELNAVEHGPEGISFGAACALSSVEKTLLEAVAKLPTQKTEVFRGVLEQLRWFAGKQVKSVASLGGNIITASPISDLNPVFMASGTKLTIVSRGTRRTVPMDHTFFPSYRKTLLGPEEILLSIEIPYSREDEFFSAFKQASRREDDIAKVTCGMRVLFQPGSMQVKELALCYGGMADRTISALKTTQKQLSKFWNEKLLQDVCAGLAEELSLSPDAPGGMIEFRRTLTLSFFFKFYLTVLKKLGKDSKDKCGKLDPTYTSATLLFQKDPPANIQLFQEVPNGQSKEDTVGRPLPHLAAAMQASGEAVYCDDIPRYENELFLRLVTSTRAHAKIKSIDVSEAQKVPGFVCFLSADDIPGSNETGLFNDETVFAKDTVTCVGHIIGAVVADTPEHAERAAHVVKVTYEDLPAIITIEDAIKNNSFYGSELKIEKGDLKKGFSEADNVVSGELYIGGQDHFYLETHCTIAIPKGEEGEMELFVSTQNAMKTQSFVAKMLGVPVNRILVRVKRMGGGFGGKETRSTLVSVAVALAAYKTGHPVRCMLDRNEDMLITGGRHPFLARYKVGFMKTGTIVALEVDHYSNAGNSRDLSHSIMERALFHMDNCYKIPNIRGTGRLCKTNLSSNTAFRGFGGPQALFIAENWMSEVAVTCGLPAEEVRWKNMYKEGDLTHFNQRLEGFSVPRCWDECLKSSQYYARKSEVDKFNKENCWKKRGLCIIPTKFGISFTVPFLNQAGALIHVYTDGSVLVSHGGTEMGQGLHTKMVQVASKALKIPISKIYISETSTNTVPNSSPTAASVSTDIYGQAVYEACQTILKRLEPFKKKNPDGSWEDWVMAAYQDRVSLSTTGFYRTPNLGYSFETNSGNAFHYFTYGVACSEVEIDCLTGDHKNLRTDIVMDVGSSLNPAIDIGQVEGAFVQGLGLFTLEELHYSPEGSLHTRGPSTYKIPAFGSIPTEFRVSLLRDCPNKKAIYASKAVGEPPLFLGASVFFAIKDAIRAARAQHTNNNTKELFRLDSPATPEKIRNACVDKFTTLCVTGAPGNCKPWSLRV
property: pKi
Field pKi (float): negative decimal logarithm of the concentration in molar.

INPUT: What value of measured pKi is listed for C=CCOc1ccc(-c2nc(C)c(C(=O)O)[se]2)cc1C#N ?
OUTPUT: 9.05

* * *

Consider the following molecules; for each one, report its IC50.
target: Xanthine dehydrogenase/oxidase (Bos taurus); test: Inhibition of bovine xanthine oxidase assessed as inhibition of uric acid formation after 30 mins by spectrophotometry
API: value field is a number in nM; no unit string.

INPUT: Return IC50 measured with Xanthine dehydrogenase/oxidase (Bos taurus) given this molecule: Cc1nc(-c2ccc(OCc3ccccc3)c([N+](=O)[O-])c2)[se]c1C(=O)O
OUTPUT: 40.3

INPUT: Return IC50 measured with Xanthine dehydrogenase/oxidase (Bos taurus) given this molecule: CCCCOc1ccc(-c2nc(C)c(C(=O)O)[se]2)cc1[N+](=O)[O-]
OUTPUT: 49.2

INPUT: Return IC50 measured with Xanthine dehydrogenase/oxidase (Bos taurus) given this molecule: COc1ccc(-c2nc(C)c(C(=O)O)[se]2)cc1C#N
OUTPUT: 30.6

INPUT: Return IC50 measured with Xanthine dehydrogenase/oxidase (Bos taurus) given this molecule: Cc1nc(-c2ccc(OCC(C)C)c([N+](=O)[O-])c2)[se]c1C(=O)O
OUTPUT: 33.7

INPUT: Return IC50 measured with Xanthine dehydrogenase/oxidase (Bos taurus) given this molecule: CCCOc1ccc(-c2nc(C)c(C(=O)O)[se]2)cc1C#N
OUTPUT: 16.2

INPUT: Return IC50 measured with Xanthine dehydrogenase/oxidase (Bos taurus) given this molecule: C#CCOc1ccc(-c2nc(C)c(C(=O)O)[se]2)cc1C#N
OUTPUT: 53.8

INPUT: Return IC50 measured with Xanthine dehydrogenase/oxidase (Bos taurus) given this molecule: CCCCCOc1ccc(-c2nc(C)c(C(=O)O)[se]2)cc1C#N
OUTPUT: 45.6

INPUT: Return IC50 measured with Xanthine dehydrogenase/oxidase (Bos taurus) given this molecule: CCC(C)Oc1ccc(-c2nc(C)c(C(=O)O)[se]2)cc1C#N (stereo not drawn)
OUTPUT: 10.4

INPUT: Return IC50 measured with Xanthine dehydrogenase/oxidase (Bos taurus) given this molecule: Cc1nc(-c2ccc(OCCC(C)C)c([N+](=O)[O-])c2)[se]c1C(=O)O
OUTPUT: 65.6

INPUT: Return IC50 measured with Xanthine dehydrogenase/oxidase (Bos taurus) given this molecule: CCOc1ccc(-c2nc(C)c(C(=O)O)[se]2)cc1[N+](=O)[O-]
OUTPUT: 82.5

INPUT: Return IC50 measured with Xanthine dehydrogenase/oxidase (Bos taurus) given this molecule: CCCCOc1ccc(-c2nc(C)c(C(=O)O)[se]2)cc1C#N
OUTPUT: 13.2

INPUT: Return IC50 measured with Xanthine dehydrogenase/oxidase (Bos taurus) given this molecule: C=CCOc1ccc(-c2nc(C)c(C(=O)O)[se]2)cc1C#N
OUTPUT: 5.5

INPUT: Return IC50 measured with Xanthine dehydrogenase/oxidase (Bos taurus) given this molecule: C=CCOc1ccc(-c2nc(C)c(C(=O)O)[se]2)cc1[N+](=O)[O-]
OUTPUT: 16.1

The origin of these recorded values is ChEMBL document CHEMBL3352102.
